- System: PC-3
- Experiment Summary: NCI tumour cell line growth inhibition, 48 h
Calls of active or inactive are those of the source. No stated cut-off is given here; in the data, active = GI50 up to about 1.1 µM and inactive = higher.
Assay Endpoint: GI50

O=C1CSCC(=O)Nc2ccccc2N1 = > 100 µM (inactive)

-- ask Form field - read-out: GI50; system: PC-3; submitted item: Cc1cc(-c2nc3ccc(F)cc3s2)ccc1NC(=O)C(N)CCCCN (stereo unspecified)
-- reply 9.53 µM (inactive)

-- ask Form field - read-out: GI50; system: PC-3; submitted item: Cc1ccnc(NC(NC(=O)c2ccccc2)(C(F)(F)F)C(F)(F)F)c1
-- reply > 100 µM (inactive)

-- ask Form field - read-out: GI50; system: PC-3; submitted item: CC(C)Sc1nc(C#N)cc2c1CCCC2
-- reply 38.2 µM (inactive)

-- ask Form field - read-out: GI50; system: PC-3; submitted item: O=C(/C=C/c1ccc(O)c(O)c1)OCCc1cccc2ccccc12
-- reply 3.88 µM (inactive)

-- ask Form field - read-out: GI50; system: PC-3; submitted item: Cc1n[nH]/c(=N\S(=O)(=O)c2ccc(/N=N/c3c(O)c(C(=O)O)cc4ccccc34)cc2)s1
-- reply > 100 µM (inactive)

-- ask Form field - read-out: GI50; system: PC-3; submitted item: CCSc1nc(N/N=C/c2cccs2)c2cnn(CO)c2n1
-- reply 6.58 µM (inactive)
